These measurements were taken from patent US20100311782A1.

- Assay Method Text: Dog PK
- Type: in vivo
- Condition Parameters: dog, in vivo; mean of three dogs, PO 6 mg/kg
Measured Endpoint: AUC (ng·h/mL)
Number in ng·h/mL, nothing else.

State the recorded AUC for this entry: `C[C@H]1CN(C[C@H](Cc2ccccc2)C(=O)[O-])CC[C@@]1(C)c1cccc(C(N)=O)c1.[Li+]`
259

---

- Target Of Assay: cloned human μ opioid receptor (Homo sapiens, UniProt P35372)
- Construct: expressed in transfected cells
- Sequence (P35372 whole entry): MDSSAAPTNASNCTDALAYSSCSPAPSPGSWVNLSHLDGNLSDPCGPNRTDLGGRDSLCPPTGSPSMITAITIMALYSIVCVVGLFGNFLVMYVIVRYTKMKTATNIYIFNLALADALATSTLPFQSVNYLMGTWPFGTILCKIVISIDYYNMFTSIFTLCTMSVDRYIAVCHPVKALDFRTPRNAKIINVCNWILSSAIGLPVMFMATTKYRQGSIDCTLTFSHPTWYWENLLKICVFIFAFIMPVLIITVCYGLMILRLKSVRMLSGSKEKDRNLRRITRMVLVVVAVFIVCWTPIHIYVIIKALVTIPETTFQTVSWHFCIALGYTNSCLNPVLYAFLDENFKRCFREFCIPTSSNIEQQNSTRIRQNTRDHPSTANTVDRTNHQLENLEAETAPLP
- Assay Method Text: Receptor binding, [3H]diprenorphine displacement, mu opioid receptor
- Condition Parameters: MOR Ki, [3H]diprenorphine, cloned human mu opioid receptor
Structures can show the parent of a compound that is named as a salt.
In this section we review reported pKi values for a set of compounds.
As a rule, pKi stands for the negative log10 of the concentration, concentration in M.

Examples with answers:
>>> recorded_result("CC1CN(CC(Cc2ccccc2)C(=O)NCC(=O)O)CCC1(C)c1cccc(C(N)=O)c1 (stereo not shown) [Example C-3, sodium salt, reference compound]")
8.54
>>> recorded_result("C[C@H]1CN(C[C@H](Cc2ccccc2)C(=O)O)CC[C@@]1(C)c1cccc(C(N)=O)c1 [Example 6]")
7.74
>>> recorded_result("C[C@H]1CN(C[C@H](Cc2ccccc2)C(=O)O)CC[C@@]1(C)c1cccc(C(N)=O)c1.O=C(O)C(F)(F)F [Example 3, trifluoroacetate salt]")
7.91
>>> recorded_result("C[C@H]1CN(C[C@H](Cc2ccccc2)C(=O)[O-])CC[C@@]1(C)c1cccc(C(N)=O)c1.[Li+] [Example 1, lithium salt]")
7.95
>>> recorded_result("C[C@H]1CN(C[C@H](Cc2ccccc2)C(=O)[O-])CC[C@@]1(C)c1cccc(C(N)=O)c1.[Na+] [Example 2, sodium salt]")
7.76

State the recorded pKi for this entry: C[C@H]1CN(C[C@H](Cc2ccccc2)C(=O)O)CC[C@@]1(C)c1cccc(C(N)=O)c1 [Example 4]
7.85

State the recorded pKi for this entry: C[C@H]1CN(C[C@H](Cc2ccccc2)C(=O)O)CC[C@@]1(C)c1cccc(C(N)=O)c1 [Example 5]
7.77
